Biological target: Solute carrier organic anion transporter family member 1B3 (Homo sapiens)
Sequence (Q9NPD5 whole entry): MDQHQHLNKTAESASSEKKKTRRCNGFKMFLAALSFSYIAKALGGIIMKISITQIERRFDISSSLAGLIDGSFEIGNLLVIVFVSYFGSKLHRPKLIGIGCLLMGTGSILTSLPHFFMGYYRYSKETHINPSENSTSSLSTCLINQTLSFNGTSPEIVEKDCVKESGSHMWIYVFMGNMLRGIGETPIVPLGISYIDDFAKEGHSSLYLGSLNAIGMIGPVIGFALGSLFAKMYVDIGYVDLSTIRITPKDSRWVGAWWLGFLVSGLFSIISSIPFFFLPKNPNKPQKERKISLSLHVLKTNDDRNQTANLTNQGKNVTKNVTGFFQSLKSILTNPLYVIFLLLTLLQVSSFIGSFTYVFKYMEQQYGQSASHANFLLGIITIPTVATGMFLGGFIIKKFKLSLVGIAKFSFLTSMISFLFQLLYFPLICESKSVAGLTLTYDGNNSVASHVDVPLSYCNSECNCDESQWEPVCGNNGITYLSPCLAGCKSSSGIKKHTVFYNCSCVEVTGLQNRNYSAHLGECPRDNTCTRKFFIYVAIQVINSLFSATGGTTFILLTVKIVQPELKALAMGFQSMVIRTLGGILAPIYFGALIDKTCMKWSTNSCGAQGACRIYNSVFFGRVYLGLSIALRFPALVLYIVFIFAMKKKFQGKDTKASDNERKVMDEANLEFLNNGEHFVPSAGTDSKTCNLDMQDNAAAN
Test: Inhibition of human liver OATP1B3 expressed in HEK293 Flp-In cells assessed as reduction in [3H]E17-betaG uptake at 20 uM incubated for 5 mins by scintillation counting
Conditions: hek293, 5 min
Could you please report measured INH for the items listed next?
Numbers only, in %.

Worked examples follow.
COMPOUND	READING_UNIT	READOUT_NUMBER
CCOc1ccc(NC(C)=O)cc1 [PHENACETIN]	%	-0.9
CC(C)(C)c1ccc(C(O)CCCN2CCC(C(O)(c3ccccc3)c3ccccc3)CC2)cc1 (stereo not drawn) [TERFENADINE]	%	33.3
N[C@@H]1C[C@H]1c1ccccc1.N[C@H]1C[C@@H]1c1ccccc1 (relative stereo) [TRANYLCYPROMINE]	%	-9.3
O=C1CC2(CCCC2)CC(=O)N1CCCCN1CCN(c2ncccn2)CC1 [BUSPIRONE]	%	-5.6
C[C@@H]1O[C@@H](O[C@H]2C[C@@H](O)[C@]3(CO)[C@H]4[C@H](O)C[C@]5(C)[C@@H](C6=CC(=O)OC6)CC[C@]5(O)[C@@H]4CC[C@]3(O)C2)[C@H](O)[C@H](O)[C@H]1O [OUABAIN]	%	20.5
Cc1ncc2n1-c1ccc(Cl)cc1C(c1ccccc1F)=NC2 [MIDAZOLAM]	%	6.7
CC(C)N(CCC(C(N)=O)(c1ccccc1)c1ccccn1)C(C)C (stereo not drawn) [DISOPYRAMIDE]	%	8.6
COc1c2occc2cc2ccc(=O)oc12 [METHOXSALEN]	%	8.9
Cc1c(OCC(F)(F)F)ccnc1C[S+]([O-])c1nc2ccccc2[nH]1 (stereo not drawn) [LANSOPRAZOLE]	%	23.3
CC(C)NCC(O)COc1cccc2ccccc12 (stereo not drawn) [PROPRANOLOL]	%	12.8

// for each compound below, give its INH
1. COC(=O)C1=C(C)NC(C)=C(C(=O)OCCN(C)Cc2ccccc2)C1c1cccc([N+](=O)[O-])c1 (stereo not drawn) [NICARDIPINE]
2. CO[C@H]1/C=C/O[C@@]2(C)Oc3c(C)c(O)c4c(O)c(c(/C=N/N5CCN(C)CC5)c(O)c4c3C2=O)NC(=O)/C(C)=C\C=C\[C@H](C)[C@H](O)[C@@H](C)[C@@H](O)[C@@H](C)[C@H](OC(C)=O)[C@@H]1C [RIFAMPIN]
3. Cn1nnnc1SCC1=C(C(=O)O)N2C(=O)[C@@H](NC(=O)[C@H](O)c3ccccc3)[C@H]2SC1 [CEFAMANDOLE]

(A)
[10.1, 101.7, 16.5]

// provenance: ChEMBL document CHEMBL2163248
